# tgt: T1, Peptide-8 (human, phosphothreonine 212 (tau 2N4R numbering); SCBiot and dPEG4 at the N-terminus; amide at the C-terminus)
# T1 construct: also called pT212-tau peptide (Peptide-8)
# protocol: SPR ProteOn, mAb captured by anti-human Fc, peptide as analyte

# binder, kon / M⁻¹ s⁻¹
records = [
    ("B282 (antibody, human IgG1, V domains shown, Humanized (HFA) PT3 variant, human IgG1/kappa; also called VH93/VL77) VH: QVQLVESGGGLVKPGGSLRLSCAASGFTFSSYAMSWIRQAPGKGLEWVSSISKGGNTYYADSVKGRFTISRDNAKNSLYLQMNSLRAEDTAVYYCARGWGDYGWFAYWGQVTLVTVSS VL: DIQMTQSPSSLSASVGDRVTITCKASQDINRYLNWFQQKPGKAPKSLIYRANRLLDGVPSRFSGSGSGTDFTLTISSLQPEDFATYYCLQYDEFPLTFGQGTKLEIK", 442000),
]

Values compiled from patent US20230047413A1.
